# Test system: MS2 coat protein
# procedure_summary: apparent KD of MS2 coat protein; designed switch direction (-1 OFF switch, 1 ON switch): -1; higher = weaker reporter binding
# condition_summary: input ligand: FMN 200 uM
measured_property: apparent KD of MS2 coat protein (nM)
Express it in nM; write the number only.

Asked: Give recorded apparent KD of MS2 coat protein with MS2 coat protein for the following sequence: AUAUACGGAGGAUAUACUUGAGGAUCACCCAAGUGGAAUCCCGUUUGGGCGGUAAAUAGUAGAAGGCCGACCCA [jl-ex3-4.42 ViennaUCT mod] (Eterna round: R97, puzzle: Exclusion 3)
Given back: 17.7

Asked: Test system MS2 coat protein; read-out apparent KD of MS2 coat protein; what value for GCAAGCUUUAUCACUAUGAACAUGAGGAUCACCCAUGUAUAAGGUAUUACUUUUGGGCCCUUUAGUGCUCGUCUUAU [JR_STOV1_Sub032] (Eterna round: R97, puzzle: Sensor, turn-off variant 1) ?
Given back: 29.8

Asked: Observed apparent KD of MS2 coat protein on MS2 coat protein for GAUGGCUAAGGAUAUACAUAGAAGAAUUGAACUUGGAUUAUACAUGAGGAUCACCCAUGUAGAAGGUAGUCAUC [ExGluten 3 - Jieux - Exclusion 2] (Eterna round: R97, puzzle: Exclusion 2) , please.
Given back: 82.9

Reference source: the supplement of paper PMC9170038
